Source: patent EP2014310A2

Molecular target: T1, human KDR-Fc fusion (R&D Systems #357-KD-050) (human, UniProt P35968 20-764)
T1 construct: bought
T1 sequence (P35968 20-764): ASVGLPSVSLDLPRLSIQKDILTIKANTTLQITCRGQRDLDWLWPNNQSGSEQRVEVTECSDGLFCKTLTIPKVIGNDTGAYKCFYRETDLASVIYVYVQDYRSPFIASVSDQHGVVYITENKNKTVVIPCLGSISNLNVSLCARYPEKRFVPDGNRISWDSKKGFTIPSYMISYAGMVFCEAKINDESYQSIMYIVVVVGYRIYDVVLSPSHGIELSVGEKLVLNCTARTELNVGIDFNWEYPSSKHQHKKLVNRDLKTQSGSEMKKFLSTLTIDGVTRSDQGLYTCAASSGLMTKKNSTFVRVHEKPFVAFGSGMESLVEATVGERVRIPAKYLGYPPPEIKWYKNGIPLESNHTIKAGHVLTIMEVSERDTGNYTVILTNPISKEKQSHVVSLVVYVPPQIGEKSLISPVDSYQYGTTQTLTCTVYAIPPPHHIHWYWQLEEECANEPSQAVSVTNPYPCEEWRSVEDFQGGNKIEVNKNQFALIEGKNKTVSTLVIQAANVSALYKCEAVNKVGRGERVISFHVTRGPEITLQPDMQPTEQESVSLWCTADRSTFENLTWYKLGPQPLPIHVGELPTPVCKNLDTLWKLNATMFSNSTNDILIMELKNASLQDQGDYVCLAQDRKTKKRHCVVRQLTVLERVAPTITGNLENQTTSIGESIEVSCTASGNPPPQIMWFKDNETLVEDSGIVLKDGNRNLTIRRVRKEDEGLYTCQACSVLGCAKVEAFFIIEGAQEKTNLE
Test: Biacore, KDR-Fc on CM5 chip, unlabeled peptide
pKd: −log10 of the molar value. Bridge positions count the residues as written; N and C are the ends.

| BINDER | pKd |
| --- | --- |
| Ac-AQEPEGYAYWEVITLYHEEDGDGGK-NH2 (not fully specified) [SEQ ID NO:305] | 6.14 |
| Ac-GDGSWCEMRQDVGKWNCFSDDPGGGK-NH2 (disulfide 6-17 (inferred); not fully specified) [SEQ ID NO:299] | 6.74 |
| Ac-GDYPWCHELSDSVTRFCVPWDPGGGK-NH2 (disulfide 6-17 (inferred); not fully specified) [SEQ ID NO:293] | 6.74 |
| Ac-GDNWECGWSNMFQKEFCARPDPGGGK-NH2 (disulfide 6-17 (inferred); not fully specified) [SEQ ID NO:303] | 6.00 |
